Reference for the values: patent US20260109708A1

# IC50 values compiled below
- Target under test: p38a activated, mitogen-activated protein kinase-activated protein kinase 2 (MAPKAP-K2 or MK2) enzyme (Homo sapiens)
- Sequence (P49137 whole entry): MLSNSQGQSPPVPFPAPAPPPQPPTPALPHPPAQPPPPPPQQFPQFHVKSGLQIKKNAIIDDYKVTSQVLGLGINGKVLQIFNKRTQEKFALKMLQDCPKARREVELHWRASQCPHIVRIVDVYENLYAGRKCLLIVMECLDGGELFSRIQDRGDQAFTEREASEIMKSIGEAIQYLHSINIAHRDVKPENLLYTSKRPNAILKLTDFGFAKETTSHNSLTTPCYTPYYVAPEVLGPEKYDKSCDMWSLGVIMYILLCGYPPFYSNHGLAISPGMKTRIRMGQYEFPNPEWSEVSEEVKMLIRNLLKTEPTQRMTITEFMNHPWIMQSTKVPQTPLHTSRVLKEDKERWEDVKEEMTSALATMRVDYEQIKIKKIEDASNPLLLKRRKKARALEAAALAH
- Assay protocol: MK2 OMNIA biochemical assay (AssayQuant continuous-read kinase assay)
- Run parameters: [MK-2]=0.05 nM, [ATP]=100 μM, [AQT0425]=10 μM

- Compound: "C[C@@H]1CNc2c(sc3ccc4nc(-c5ccc(N6CCC(CN7CCN(c8ccc(C9CCC(=O)NC9=O)cc8)CC7)CC6)cc5)ccc4c23)C(=O)N1 (stereo partly drawn)"
  IC50: "151 to 500 nM"
- Compound: "C[C@@H]1COc2c(sc3ccc4nc(-c5ccc(N6CCN(CCN7CCN(c8ccc9c(C%10CCC(=O)NC%10=O)nn(C)c9c8)CC7)CC6)cc5)ccc4c23)C(=O)N1 (stereo partly drawn)"
  IC50: "< 150 nM"
- Compound: "C[C@@H]1CNc2c(sc3ccc4nc(-c5ccc(C(=O)N[C@H]6CC[C@H](CN7CCN(c8ccc9c(C%10CCC(=O)NC%10=O)nn(C)c9c8)CC7)CC6)cc5F)ccc4c23)C(=O)N1 (stereo partly drawn)"
  IC50: "< 150 nM"
- Compound: "C[C@@H]1CNc2c(sc3ccc4nc(-c5cn(C6CCN(CCN7CCC(c8ccc(C9CCC(=O)NC9=O)cc8)CC7)CC6)nn5)ccc4c23)C(=O)N1 (stereo partly drawn)"
  IC50: "< 150 nM"
- Compound: "C[C@@H]1CNc2c(sc3ccc4nc(-c5ccc(C(=O)NCCN6CCN(c7ccc(C8CCC(=O)NC8=O)cc7)CC6)cc5F)ccc4c23)C(=O)N1 (stereo partly drawn)"
  IC50: "< 150 nM"
- Compound: "C[C@@H]1CNc2c(sc3ccc4nc(-c5cccc(N6CCN(CCN7CCN(c8ccc(C9CCC(=O)NC9=O)cc8)CC7)CC6)c5)ccc4c23)C(=O)N1 (stereo partly drawn)"
  IC50: "< 150 nM"
- Compound: "C[C@@H]1CNc2c(sc3ccc4nc(-c5ccc(N6CCN(CCN7CCN(c8ccc(C9CCC(=O)NC9=O)cc8)CC7)CC6)cc5)ccc4c23)C(=O)N1 (stereo partly drawn)"
  IC50: "151 to 500 nM"
- Compound: "C[C@@H]1CNc2c(sc3ccc4nc(-c5cccc(C6CCN(CCN7CCN(c8ccc(C9CCC(=O)NC9=O)cc8)CC7)CC6)c5)ccc4c23)C(=O)N1 (stereo partly drawn)"
  IC50: "< 150 nM"
- Compound: "C[C@@H]1COc2c(sc3ccc4nc(-c5cccc(N6CCN(CCN7CCN(c8ccc(C9CCC(=O)NC9=O)cc8)CC7)CC6)c5)ccc4c23)C(=O)N1 (stereo partly drawn)"
  IC50: "< 150 nM"
- Compound: "C[C@@H]1CNc2c(sc3ccc4nc(-c5cnn(C6CCN(CCN7CCN(c8ccc9c(C%10CCC(=O)NC%10=O)nn(C)c9c8)CC7)CC6)c5)ccc4c23)C(=O)N1 (stereo partly drawn)"
  IC50: "< 150 nM"
- Compound: "C[C@@H]1CNc2c(sc3ccc4nc(-c5ccc(C(=O)NC6CCN(c7ccc(C8CCC(=O)NC8=O)cc7)CC6)cc5F)ccc4c23)C(=O)N1 (stereo partly drawn)"
  IC50: "< 150 nM"
- Compound: "C[C@@H]1CNc2c(sc3ccc4nc(-c5cccc(N6CC7CC(C6)N7CCN6CCN(c7ccc8c(C9CCC(=O)NC9=O)nn(C)c8c7)CC6)c5)ccc4c23)C(=O)N1 (stereo partly drawn)"
  IC50: "< 150 nM"
